conditions: 358.15 K; 101.33 kPa; Liquid; Capillary tube (Ostwald / Ubbelohde) method
Entries and their viscosity values follow.
value_type: viscosity (mPa·s)

> print(dat)
                                    molecule  value.type  numeric.readout
 1  CC(=O)OCCC(C)C [3-methylbutyl ethanoate]   viscosity             0.39
 2     CCC(=O)OCc1ccccc1 [benzyl propanoate]   viscosity             0.84
 3           CCCCCC(=O)OCC [ethyl hexanoate]   viscosity            0.452
 4  CCCC(=O)OCCC(C)C [3-methylbutyl butanoate]   viscosity            0.511
 5    CCOC(=O)CC(C)=O [ethyl 3-oxobutanoate]   viscosity            0.644
 6         CCCCCCCC(=O)OCC [ethyl octanoate]   viscosity            0.617
 7         COC(=O)c1ccccc1 [methyl benzoate]   viscosity             0.75
 8  CCOC(=O)CC(C)C [ethyl 3-methylbutanoate]   viscosity            0.367
 9  CCOC(=O)c1ccccc1O [ethyl 2-hydroxybenzoate]   viscosity            0.984
10   CCOC(=O)Cc1ccccc1 [ethyl phenylacetate]   viscosity            0.908
11         CCOC(=O)c1ccccc1 [ethyl benzoate]   viscosity            0.784
12       CC(=O)OCc1ccccc1 [benzyl ethanoate]   viscosity            0.826
